All figures here come from the supplement of paper PMC10567573.

B1: ETS2 (parent)
chain: TSGKRYVYRFVCDLQNLLGFTPEE

# Variants of: B1
# ASSAY EXPLANATION: protein stability index of a GFP-peptide fusion (GPS, HEK-293T) (PSI 1-6); higher = more stable;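 also: lentivirally expressed fusions sorted by FACS into six bins by GFP to DsRed ratio, PSI derived from sequencing read proportions per bin multiplied by bin number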
# COND: c terminus: a fixed tail appended
READOUT TYPE: protein stability index

Which value of protein stability index has been reported for `L17D` in the records? 1.92

Another variant to look at: `E23W` 2.88

Another variant to look at: `P22E` 1.46

Another variant to look at: `E23G` 2.15

Another variant to look at: `P22Q` 2.16

Another variant to look at: `E24C` 2.32

Another variant to look at: `L18F` 1.84

Another variant to look at: `E24T` 2.71

Another variant to look at: `T21W` 2.15

Another variant to look at: `E23D` 2.04

Another variant to look at: `L18W` 2.1

Another variant to look at: `N16H` 2.49

Another variant to look at: `P22W` 1.89

Another variant to look at: `L17N` 2.27

Another variant to look at: `Q15P` 2.7

Another variant to look at: `G19C` 1.32

Another variant to look at: `G19A` 3.01

Another variant to look at: `T21S` 2.13

Another variant to look at: `P22C` 1.4

Another variant to look at: `L14S` 2.77

Another variant to look at: `E24F` 2.96

Another variant to look at: `E23L` 2.42

Another variant to look at: `Q15T` 1.91

Another variant to look at: `T21Y` 1.77

Another variant to look at: `F20T` 1.88

Another variant to look at: `Q15H` 1.96

Another variant to look at: `L18A` 1.99

Another variant to look at: `F20K` 1.77
